# TESTED_TARGET: OATP2B1 (Homo sapiens)
# Sequence (O94956 whole entry): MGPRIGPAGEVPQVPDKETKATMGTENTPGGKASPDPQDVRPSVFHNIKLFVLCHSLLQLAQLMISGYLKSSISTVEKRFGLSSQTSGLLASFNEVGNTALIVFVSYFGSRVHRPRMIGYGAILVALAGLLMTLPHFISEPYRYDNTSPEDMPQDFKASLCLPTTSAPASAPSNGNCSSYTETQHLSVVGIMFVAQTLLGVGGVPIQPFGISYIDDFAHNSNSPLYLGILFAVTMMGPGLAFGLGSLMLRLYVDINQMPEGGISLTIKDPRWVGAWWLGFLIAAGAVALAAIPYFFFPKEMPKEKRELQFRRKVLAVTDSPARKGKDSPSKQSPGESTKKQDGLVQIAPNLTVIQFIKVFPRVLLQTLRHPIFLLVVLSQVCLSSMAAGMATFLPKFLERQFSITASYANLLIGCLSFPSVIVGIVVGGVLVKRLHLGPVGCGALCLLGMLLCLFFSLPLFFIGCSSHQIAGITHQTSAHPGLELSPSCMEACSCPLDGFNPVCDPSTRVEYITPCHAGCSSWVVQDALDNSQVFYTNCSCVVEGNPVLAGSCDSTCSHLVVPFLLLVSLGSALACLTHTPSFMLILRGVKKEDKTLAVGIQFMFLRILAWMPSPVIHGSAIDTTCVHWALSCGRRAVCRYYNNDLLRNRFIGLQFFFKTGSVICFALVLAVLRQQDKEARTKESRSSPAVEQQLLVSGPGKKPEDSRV
# ASSAY_INFO: Inhibition of human OATP2B1 expressed in Flp-In-CHO cells assessed as inhibition of OATP2B1 mediated DBF uptake using DBF as fluorescent substrate at 10 uM incubated for 2 mins by BCA assay relative to control
# Assay type: cell-based
# MEASUREMENT_PARAMETERS: Flp-In-CHO cells expressing human OATP2B1, probe DBF
Field: inhibition at 2 min, 10 µM. Provide a value for each of the compounds that follow.

Exercise: Requested field: inhibition at 2 min, 10 µM. Item: Oc1cc(O)c2c(c1)O[C@H](c1cc(O)c(O)c(O)c1)[C@H](O)C2 [EPIGALLOCATECHIN]
Solution: < 20%

Exercise: Requested field: inhibition at 2 min, 10 µM. Item: O=c1c(O)c(-c2ccc(O)cc2)oc2cc(O)cc(O)c12 [KAEMPFEROL]
Solution: < 20%

Exercise: Requested field: inhibition at 2 min, 10 µM. Item: O=c1c(-c2ccc(O)cc2)coc2cc(O)ccc12 [DAIDZEIN]
Solution: < 20%

Exercise: Requested field: inhibition at 2 min, 10 µM. Item: C[C@@H]1O[C@@H](Oc2c(-c3cc(O)c(O)c(O)c3)oc3cc(O)cc(O)c3c2=O)[C@H](O)[C@H](O)[C@H]1O
Solution: < 20%

Exercise: Requested field: inhibition at 2 min, 10 µM. Item: O=c1cc(-c2ccc(O)cc2)oc2cc(O)c(O)c(O)c12 [SCUTELLAREIN]
Solution: ≥ 80%

Data origin, for the record: ChEMBL document CHEMBL5257155
